For each record, write down the corresponding Percent Effect.
- Tested on: Wolbachia pipientis
- ASSAY PROCEDURE: Anti-Wolbachia Cell-Based Screen
- Format: functional
- Parameters: scale not given: in the data most compounds retested in dose-response had high values
- CONDITION DESCRIPTION: 5 µM
About 13,000 (27%) of roughly 48,000 compounds showed an effect of 50% or more. This is one part of the list.
Answers are plain numbers, in %.

# count of solved cases: 5
Cc1ccc(CC(=O)Nc2ccc(CS(C)(=O)=O)c(F)c2)cc1 : -3.383
COC(=O)c1ccc(C(=O)NCc2ccco2)nc1 : -23.57
CCOc1ccc(C(=O)NCc2ccnc(N3CCCC3)c2)cn1 : -6.067
OCC1N(Cc2ccc(F)cc2)[C@H]2CC[C@]1(O)CC2 (some centres not stated) : 104.7
CN(C)c1cccc(C2CCCN2CCCN2CCOC2=O)c1 (configuration not stated) : -17.44

// each listed compound needs a value for Percent Effect
1. Cc1ncsc1C(=O)NCC1SCCc2ccccc21 (configuration not stated)
2. Cc1ccsc1C(=O)N1CCC(O)(CN2CCc3ccccc3C2)C1 (configuration not stated)
3. Fc1ccc(CN2CCOC[C@H](Oc3cccnc3)C2)cc1

[A]
1. 15.22
2. 107.5
3. 4.64

====

Would you kindly list Percent Effect for each of these compounds?
- System: Wolbachia pipientis
- ASSAY PROCEDURE: Anti-Wolbachia Cell-Based Screen
- Assay type: functional
- Parameters: scale not given: in the data most compounds retested in dose-response had high values
- CONDITION DESCRIPTION: 5 µM
Screen size: about 48,000 compounds; about 13,000 (27%) showed an effect of 50% or more. The list shows a part of the results.
Give bare numbers, in %.

For orientation, consider the following solved cases.
Cn1cnc2c1C(COCc1cccnc1)N(Cc1nccs1)CC2.O=C(O)C(F)(F)F.O=C(O)C(F)(F)F.O=C(O)C(F)(F)F (configuration not stated) : 0.7375
Cc1ccc(-n2cc(CN3CCOCC(CN(C)C)C3)cn2)cc1C (configuration not stated) : -29.82
CCc1cc(NCCCC2CCOC2)n2nccc2n1 (configuration not stated) : -1.009
Cc1cccc2c1cnn2CCC(=O)NCC(=O)N(C)C : 14.92
Cc1nnn2c1COCC(CNCc1nccs1)C2.O=C(O)C(F)(F)F (configuration not stated) : -0.1911
c1csc(CCN2CCCC2c2noc(C3CC3)n2)c1 (configuration not stated) : -13.07
CCC(C)N(Cc1ccncc1)C(=O)CCSC (configuration not stated) : -18.32
CCc1nc(C2CCCN2C(=O)CCc2cccs2)no1 (configuration not stated) : -2.964
Cc1n[nH]/c(=N\C(=O)c2c3c(nc4onc(C)c24)CCC3)s1 : 84.01
CCC(Oc1ccc(N(C)S(C)(=O)=O)cc1)C(=O)NC (configuration not stated) : 9.37

# per-item lookup of Percent Effect; items listed below
1. CCc1nc(C2CCCN2C(=O)Cc2cccs2)no1 (configuration not stated)
2. Cc1nn2cccnc2c1C(=O)NCc1ccnc(OCC2CC2)c1

[A]
95.79
2.843

====

Exercise: for every item that follows, state its recorded Percent Effect.
- Tested on: Wolbachia pipientis
- ASSAY PROCEDURE: Anti-Wolbachia Cell-Based Screen
- Format: functional
- Design: scale not given: in the data most compounds retested in dose-response had high values
- CONDITION DESCRIPTION: 5 µM
Among all 48,000 compounds or so, about 13,000 (27%) showed an effect of 50% or more. This is one part of the list.

Here are 5 compounds together with their reported answers.
Cc1n[nH]c(C)c1Sc1ccccc1NC(=O)CN1CCCC1 : 2.491%
CCC(=O)Nc1ccccc1Sc1nc(Br)nn1C : 107.5%
CCNC(=O)N(C)C(c1ccccc1)c1ccccn1 (stereo unspecified) : 96.55%
CN(C(=O)C1CCCC1)C(c1cccc(F)c1)c1ccccn1 (stereo unspecified) : 96.46%
CN(C)C(=O)[C@H]1C[C@@H]2CN(C(=O)NCC3CCCCC3)C[C@H]1O2 : -9.234%

[Q] Please give the measured Percent Effect for this compound: CN(C)S(=O)(=O)N(C)C(c1cccc(F)c1)c1ccccn1 (stereo unspecified)
[A] 51.58%

====

- Tested on: Wolbachia pipientis
- ASSAY PROCEDURE: Anti-Wolbachia Cell-Based Screen
- Type: functional
- Parameters: scale not given: in the data most compounds retested in dose-response had high values
- CONDITION DESCRIPTION: 5 µM
The whole screen tested about 48,000 compounds, of which about 13,000 (27%) showed an effect of 50% or more. This is one part of the list.
VALUE TYPE: Percent Effect (%)
Answers are plain numbers, in %.

COCCN1CC(C(=O)NCc2ccnc(-n3cccn3)c2)CC1=O (stereo not given) : -1.182
CN(C)C(=O)N1C[C@@H]2CC[C@H](C1)N(Cc1ccc3nsnc3c1)C2 : -1.823
CN(C)C(=O)N1C[C@@H]2CC[C@H](C1)N(Cc1nnc(-c3ccco3)o1)C2 : 70.33
O=C(NCc1cccnc1-n1cccn1)C1CC(=O)N(CC2CC2)C1 (stereo not given) : -9.395
CC(C1CC1)N(C)Cc1nnc(-c2ccco2)o1 (stereo not given) : -0.554
c1ccc(-c2nnc(CN3C[C@@H]4CC[C@H](C3)N(CC3CCC3)C4)o2)cc1 : 0.05664
CN1CC(C(=O)NCc2cccnc2-n2cccn2)CC1=O (stereo not given) : 63.73
c1ccc(CN2C[C@H]3CC[C@@H]2CN(Cc2nnc(C4CC4)o2)C3)cc1 : 2.015

# per-item lookup of Percent Effect; items listed below
1. CN(C)C(=O)N1C[C@@H]2CC[C@H](C1)N(Cc1nnc(C3CC3)o1)C2
2. c1ccc(CN2C[C@@H]3CC[C@H](C2)N(Cc2nnc(C4CC4)o2)C3)cc1

[A]
98.65
-6.562

====

Would you kindly list Percent Effect for each of these compounds?
- System: Wolbachia pipientis
- ASSAY PROCEDURE: Anti-Wolbachia Cell-Based Screen
- Type: functional
- Set-up: scale not given: in the data most compounds retested in dose-response had high values
- CONDITION DESCRIPTION: 5 µM
About 13,000 (27%) of roughly 48,000 compounds showed an effect of 50% or more. The list shows a part of the results.
Numbers only, in %.

Please give Percent Effect, item by item, for the list that follows.
1. CN(C)CCN(C)C[C@@H]1CN(Cc2cccc(O)c2)C[C@@H]1CO
2. COc1cc(NCC(c2ccccn2)N(C)C)ncn1 (stereo unspecified)
3. O=C(c1ccc[nH]1)N1C[C@H]2CC[C@@H]1CN(c1ncccn1)C2
4. C[C@H](O)CNC(=O)c1cnc(-c2ccccc2)nc1O
5. C[C@H](O)CNc1cc(-c2ccccc2)ncn1
6. Cc1cccc(Nc2c(C#N)c(=O)n(C)c(=O)n2C)c1

[A]
1: -1.662; 2: 0.2576; 3: -10.43; 4: -14.22; 5: 111.5; 6: -3.383

====

- Tested on: Wolbachia pipientis
- ASSAY PROCEDURE: Anti-Wolbachia Cell-Based Screen
- Type: functional
- Set-up: scale not given: in the data most compounds retested in dose-response had high values
- CONDITION DESCRIPTION: 5 µM
About 13,000 (27%) of roughly 48,000 compounds showed an effect of 50% or more. Some of the results follow.
I would appreciate it if you labelled entries T when Percent Effect is 10% or higher, otherwise F.

The examples below pair each entry with its known result.
COc1ccccc1C(CNC(=O)NCc1cc[nH]n1)N1CCCC1 (configuration not stated) : F
CN(Cc1ccco1)C1CCC12CCN(C(=O)C1CCOCC1)CC2.O=C(O)C(F)(F)F (configuration not stated) : F
Cc1oncc1C(=O)NCC(c1ccccc1Cl)N1CCOCC1 (configuration not stated) : T
COc1cccc(C(=O)NCC(c2cccn2C)N2CCCC2)c1OC (configuration not stated) : T
Cc1nonc1NC(=O)CCn1cc(Br)ccc1=O : F
Cn1nc(C(C)(C)C)cc1NC(=O)Cn1ccccc1=O : T
O=C(NCCCO)C1CC(=O)N(c2n[nH]c3cccc(F)c23)C1 (configuration not stated) : T
COCCN(Cc1ccc(C)cc1)Cc1c[nH]cn1 : F

[Q] Please check the record CC(=O)NCCC(=O)NC1(c2ccc(Cl)c(Cl)c2)CC1 and state if its Percent Effect is at or above 10%.
[A] F

[Q] Try this molecule too: Cc1cc(NC(=O)Cn2ccccc2=O)n(C)n1
[A] F

[Q] Another: CCC(CNC(=O)c1ccccc1OC)N1CCc2ccccc2C1 (configuration not stated)
[A] T

[Q] Subsequent entry: Cc1ccccc1-c1cc(NC(=O)Cn2ccccc2=O)n(C)n1
[A] F

====

For each entry below, report its Percent Effect value.
- Test system: Wolbachia pipientis
- ASSAY PROCEDURE: Anti-Wolbachia Cell-Based Screen
- Format: functional
- Set-up: scale not given: in the data most compounds retested in dose-response had high values
- CONDITION DESCRIPTION: 5 µM
In all, about 48,000 compounds went through this assay and about 13,000 (27%) showed an effect of 50% or more. The list shows a part of the results.
One number for each entry, in %.

COc1ccccc1NC(=O)NCC(O)c1ccc(F)cc1F (stereo unspecified) : 114.6
Cc1cnn(CC2CCCN2C(=O)c2ccc3[nH]c(=O)[nH]c3c2)c1 (stereo unspecified) : 143.3
O=C(NCC(O)c1ccc(F)cc1F)c1ccccc1F (stereo unspecified) : 15.04
Cn1ccc(CNC(=O)N2CCC(C3(C)OCCO3)CC2)c1 : 7.37

Answer for every listed entry: what is its Percent Effect? The entries follow.
1. CC(C)CC(C(=O)N(C)Cc1ncnn1C)N1CCCCC1=O (stereo unspecified)
2. COc1cccc(NC(=O)NCC(O)c2ccc(F)cc2F)c1 (stereo unspecified)
3. CCn1ccc2ccc(CN3CCCC3c3nc(C(C)C)no3)cc21 (stereo unspecified)
4. Cc1ccc(N2CC3(COCCN(Cc4nccs4)C3)OCC2=O)s1.O=C(O)C(F)(F)F (stereo unspecified)
5. COc1ncccc1NC(=O)NCC(O)c1ccc(F)cc1F (stereo unspecified)

[A]
[7.289, 109.6, -10.44, -2.22, 0.8108]

Please give Percent Effect, item by item, for the list that follows.
1. CC(C)OCCOCc1cccc(NC(=O)NCc2cnn(C)c2)c1
2. Cc1cnn(CC2CCCN2C(=O)c2ccc3[nH]nnc3c2)c1 (stereo unspecified)

[A]
[2.629, 0.8571]
